EXPERIMENT_NOTES: Toxicity liver stage against HepG2, at 10uM
Assay type: cell-based
Set-up: test concentration 10 uM, cell line HepG2-A16-CD81EGFP
PARTICULARS: human, HepG2-A16-CD81EGFP cells; read-out: INHIBITION
Measured cytotoxicity at 10 µM values are reported for all entries that follow.

CC(C)N(C)Cc1nnc2n1CCN(S(=O)(=O)C1CC1)CC2 | -1.13%
COc1ccc(CCN2CCCC(CN(C)Cc3[nH]cnc3C)C2)cc1 (stereo not given) | -11.7%
CC(C)c1cc(NCc2csc(C(C)C)n2)nc(N)n1 | 19.8%

// query Entry CSc1ncccc1C(=O)N1CCC2(CC1)OCCCC2O (stereo not given) needs its cytotoxicity at 10 µM filled in; supply it.
// result -7.16%

// query Could you please provide reported cytotoxicity at 10 µM for COc1ccc(OC)c(C2CCN(c3ccc4cc[nH]c4n3)C2)c1 (stereo not given) ? Thanks!
// result -1.6%

* * *

EXPERIMENT_NOTES: Toxicity liver stage against HepG2, at 10uM
Type: cell-based
Parameters: test concentration 10 uM, cell line HepG2-A16-CD81EGFP
PARTICULARS: human, HepG2-A16-CD81EGFP cells; read-out: INHIBITION
cytotoxicity at 10 µM less than -10% is Yes; cytotoxicity at 10 µM greater than or equal to -10% is No.

Worked set:
Cc1cc(C)n(C2CCN(C(=O)c3cn4ccsc4n3)C2)n1 (stereo unspecified) | No
CCCOCCN1CCc2[nH]c(-c3ccccc3)nc2C1 | Yes
O=C(NC1CCCCC1)c1c(F)cccc1F | No
Cc1cccc(C(C(=O)NCc2nc(-c3ncccn3)no2)N(C)C)c1 (stereo unspecified) | No
COCC(C)NC(=O)c1nnn(-c2ccc(OC)cc2)n1 (stereo unspecified) | No

// query Bench note: check whether "Cc1cc(O)c(OCC(=O)Nc2nccs2)cn1" shows cytotoxicity at 10 µM below -10%
// result No

// query Take the compound O=C(c1ccccn1)N1CCCC(c2nccn2Cc2ccncc2)C1 (stereo unspecified) and say whether its cytotoxicity at 10 µM is less than -10%.
// result Yes

// query Does the reported cytotoxicity at 10 µM of the following compound sit strictly below -10%? COc1ccc(OC)c(C(=O)N2CCCCC2Cn2cccn2)c1 (stereo unspecified)
// result No

// query Take the compound "O=C1CCCN1Cc1ncn2c1CN(S(=O)(=O)c1cccs1)CCC2" and say whether its cytotoxicity at 10 µM is less than -10%.
// result No

* * *

EXPERIMENT_NOTES: Toxicity liver stage against HepG2, at 10uM
Type: cell-based
Parameters: test concentration 10 uM, cell line HepG2-A16-CD81EGFP
PARTICULARS: human, HepG2-A16-CD81EGFP cells; read-out: INHIBITION
MEASURED_PARAMETER: cytotoxicity at 10 µM (%)
// units = %; emit number, no label

Would you please look over these solved cases?
CCNc1ncc(C(=O)NCc2csc(-c3cnccn3)n2)cn1 | 0.185
CCc1nccn1C1CCCN(C(=O)c2cc(C3CC3)on2)C1 (stereo unspecified) | -6.96
Cc1nc(C)n(CC2CN(CCc3ccccn3)CCO2)n1 (stereo unspecified) | 4.89
Cc1cnc2n(c1=O)C(CC(=O)NCc1ccc(F)cc1)CS2 (stereo unspecified) | 6.47
COc1cccc(CN(C(=O)Nc2nncs2)C2CCC(O)CC2)c1 (stereo unspecified) | -0.67

// query Could you please provide reported cytotoxicity at 10 µM for "Cc1nc(=O)c2ccccc2n1C1=CCN(CC(=O)NC(C)C)CC1" ? Thanks!
// result -7.99

// query Assign cytotoxicity at 10 µM to the following record: "CCCN(CCC)c1ncc(S(=O)(=O)c2cccc(C)c2)c(N)n1"
// result 11

// query Please report the measured cytotoxicity at 10 µM for COc1ccc(C2(NC(=O)C3CC(=O)N(C)C3)CCCC2)cc1 (stereo unspecified)
// result 14.7

// query Provide measured cytotoxicity at 10 µM value, entry: "CCCc1cc(N2CCC(NCC3(O)CCCCC3)CC2)nc(C)n1"
// result -2.48

// query Return reported cytotoxicity at 10 µM. Input molecule: "CN(CCSc1ccccc1)C(=O)c1cn2c(n1)CNCC2"
// result -47.4

// query Report measured cytotoxicity at 10 µM; entry is NCC1CCC(C(NC(=O)CC2CCCC2)c2ccccn2)CC1 (stereo unspecified)
// result -14.6

// query Assign cytotoxicity at 10 µM to the following record: CCn1nc(C)c(CNC(=O)c2cn(CCC3CCCCN3)nn2)c1C (stereo unspecified)
// result -1.96

// query Determine from records and report cytotoxicity at 10 µM for "c1c(CN2CCOCC2)nc2n1CCN(C1CCOCC1)C2"
// result 0.997

// query Please supply the value of reported cytotoxicity at 10 µM for the item "Cc1ccc(-c2cc(CNC(=O)N3CCSCC3)on2)cc1"
// result 2.7

// query Note cytotoxicity at 10 µM for the molecule shown: "COc1ccc(-n2c(COC(C)C)n[nH]c2=O)cc1"
// result 3.45

// query Specify reported cytotoxicity at 10 µM for the molecule shown: CNC(=O)c1cnn2c(C3CCCN3)ccnc12 (stereo unspecified)
// result 8.88

// query State its cytotoxicity at 10 µM: Cc1cnc(C(=O)NC(COCC(C)C)c2ccco2)cn1 (stereo unspecified)
// result -19.6

// query Return reported cytotoxicity at 10 µM. Input molecule: "Cc1nc(N2CC[C@@H](NC(=O)c3cnccn3)[C@H](O)C2)c2ccsc2n1"
// result 38.6

// query Kindly indicate its recorded cytotoxicity at 10 µM. Item: CN(C)c1cc(C(F)(F)F)nc(N2CCCC2c2ccccn2)n1 (stereo unspecified)
// result 5.36

// query Note down cytotoxicity at 10 µM recorded for "CCc1nc(CN2CCN(C(=O)C3(C#N)CCCC3)CC2)cs1"
// result 0.38

// query Please give measured cytotoxicity at 10 µM of the following entry: COc1c(CNC2CCC(O)CC2)c(C(C)C)nn1C (stereo unspecified)
// result -6.59

// query Return reported cytotoxicity at 10 µM. Input molecule: Cc1csc2c(C3CCCN(C(=O)CCn4ccnc4)C3)nc(C)n12 (stereo unspecified)
// result 16.9

// query Answer with reported cytotoxicity at 10 µM of "CC(C)CCN1CCN(C(=O)c2cccnc2-n2cncn2)CC1"
// result 6.37

// query Identify measured cytotoxicity at 10 µM associated with "COc1cc(CCC(=O)N2CCC(c3cncc(C)n3)CC2)on1"
// result 4.46

* * *

EXPERIMENT_NOTES: Toxicity liver stage against HepG2, at 10uM
Format: cell-based
Parameters: test concentration 10 uM, cell line HepG2-A16-CD81EGFP
PARTICULARS: human, HepG2-A16-CD81EGFP cells; read-out: INHIBITION
MEASURED_PARAMETER: cytotoxicity at 10 µM (%)
Only the number, expressed in %, is required.

Previously resolved entries follow.
Cc1c(NC(=O)NC2CN3CCC2CC3)cccc1C(=O)N1CCCC1 (stereo not given) | 10.1
C/N=C1\c2cc3cc(OC)ccc3n2CCN1C | -10.1
Cc1ccc(CCN2CCCC23Cc2ccccc2CNC3=O)cc1 (stereo not given) | 7.41
c1ccc(O[C@@H]2CC[C@H]3[C@H]2OCCN3Cc2ccsc2)nc1 | 1.24

// query Note cytotoxicity at 10 µM for the molecule shown: O=C(c1ccncc1F)N1CC[C@@H]2OC(COCC3CC3)CC[C@@H]21 (stereo not given in full)
// result -4.03

* * *

EXPERIMENT_NOTES: Toxicity liver stage against HepG2, at 10uM
Type: cell-based
Set-up: test concentration 10 uM, cell line HepG2-A16-CD81EGFP
PARTICULARS: human, HepG2-A16-CD81EGFP cells; read-out: INHIBITION
MEASURED_PARAMETER: cytotoxicity at 10 µM (%)
Please state the figure in %; there is no need to write the unit.

Below, each entry is followed by its recorded cytotoxicity at 10 µM result.
CSCC(=O)N1CCCC(c2cc(C)[nH]n2)C1 (stereo unspecified) | -11.3
CN(Cc1ccccn1)C(=O)c1nc(S(C)(=O)=O)n2ccccc12 | -8.01
Cc1ncc(CN(C)C2CCCN(c3cccnn3)C2)s1 (stereo unspecified) | 0.709
CC1(C)CN(CC(F)(F)F)CCN1CC(N)=O | 9.92
O=C1CCC2(CCCN(C(=O)Cc3ccccc3)C2)N1 (stereo unspecified) | 8.18
COCC(C)N(C)C(=O)NC1CCN(c2ncccn2)CC1 (stereo unspecified) | -12.5
O=c1[nH]c(C2CCOC2)nc2cc(F)c(F)cc12 (stereo unspecified) | 9.66
CCOc1ccc(C(=O)NC2CC2)cc1C | 8
O=C(O)[C@@H]1CN(C(=O)CC2CCCC2)C[C@H]1c1ccc(F)cc1 | -10.2
Cc1nccn1-c1ccc(C(C)NCCC(C)C)cc1 (stereo unspecified) | 15.9

We next turn to a different compound, shown below.
// query Find the measured cytotoxicity at 10 µM of NCC1Cc2cc(-c3cncc(C(=O)N4CCCCC4)n3)cc(F)c2O1 (stereo unspecified) and report it.
// result -51.8
